B1: tRNA (parent)
chain: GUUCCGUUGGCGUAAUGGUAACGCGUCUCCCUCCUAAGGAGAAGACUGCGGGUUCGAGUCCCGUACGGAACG

Variants of: B1
Assay: yeast fitness relative to wild type (ratio to wild type); higher = fitter; tRNA-Arg(CCU), competitive growth, 37 C, YPD
Fewer inactive variants are shown than the library holds.
TEST READOUT: yeast fitness

> print(dat)
                       sequence.change   test.readout  reported
 1             C5A U13A A20G A42C U59C  yeast fitness     ≤ 0.5
 2                      G18A G50C G56C  yeast fitness     ≤ 0.5
 3                      U32G C55A A57G  yeast fitness     ≤ 0.5
 4        U8A C11U C31G G38C A40C G56A  yeast fitness     ≤ 0.5
 5  G18A C31G G41A G52C C60U C62G C66G  yeast fitness     ≤ 0.5
 6            C11U A14G C27G C31U G68C  yeast fitness     ≤ 0.5
 7                      C22A C55A A57U  yeast fitness     ≤ 0.5
 8                      C34U A36G A57G  yeast fitness     ≤ 0.5
 9                  U3A C11A C33U G68C  yeast fitness     ≤ 0.5
10                 G12C A15U C24A C61U  yeast fitness     ≤ 0.5
11              C4A C5G C27U U53A A69U  yeast fitness     ≤ 0.5
12                  U3A A40C C55A C66A  yeast fitness     ≤ 0.5
13                 A20U C31U C62A A69U  yeast fitness     ≤ 0.5
14                            U3A A43U  yeast fitness     0.929
15                           C29G A65G  yeast fitness     0.713
16            C24G C27A A45C C62G C66U  yeast fitness     ≤ 0.5
17                      C29G G48C C61A  yeast fitness     0.564
18                            U3C C62A  yeast fitness     0.865
19                           A14C C46U  yeast fitness     0.915
20                 C33G U35C U59A A69U  yeast fitness     0.657
21                           U16C A45G  yeast fitness     0.919
22       G12C A15G C29U A42U U47C C62U  yeast fitness     ≤ 0.5
23                  C5U A43C C49U G50A  yeast fitness     ≤ 0.5
24                           A21G A65G  yeast fitness      1.01
25                       C5A U47C A70G  yeast fitness     0.705
26            G23C C24G C34G U64A G67A  yeast fitness     ≤ 0.5
27                            U7A U59A  yeast fitness     0.778
28             U7A A14C G25A C30G C49U  yeast fitness     0.557
29       C30U U32A A36U A37U C62U A69U  yeast fitness     ≤ 0.5
30                      C24U C27A G50U  yeast fitness     ≤ 0.5
31                           A43G U59G  yeast fitness     0.842
32                   C4U G9A C22G A42U  yeast fitness     0.546
33                      G10A G17C A69U  yeast fitness     ≤ 0.5
